tested on: Penicillium; experiment: Antifungal activity against Penicillium after 72 to 96 hrs by broth dilution method; format: functional
// NB: equality with 100 µg/mL counts as Criterion not met; only MIC strictly below is Criterion met

CCOC(=O)O/N=C1\CC(c2ccccc2)N(C)C(c2ccccc2)C1C(C)C (stereo unspecified) ... Criterion not met
CC(Cl)OC(=O)O/N=C1\CC(c2ccccc2)N(C)C(c2ccccc2)C1C(C)C (stereo unspecified) ... Criterion met
CC1/C(=N/OC(=O)Oc2ccccc2)CC(c2ccccc2)N(C)C1c1ccccc1 (stereo unspecified) ... Criterion met
CCOC(=O)O/N=C1\CC(c2ccccc2)N(C)C(c2ccccc2)C1C (stereo unspecified) ... Criterion not met

Next, consider the following molecule.
Dear reviewer, please state whether CC(C)C1/C(=N/OC(=O)Oc2ccccc2)CC(c2ccccc2)N(C)C1c1ccccc1 (stereo unspecified) has MIC strictly beneath 100 µg/mL. Criterion met

These data points were gathered from ChEMBL document CHEMBL2380238.
